Assay: in vivo
Details: NSG, mouse, plasma, ip, 10 mg/kg
ASSAY READOUT: half-life (min)
Report only the number, with the unit min understood.

Sample Cc1nc(Nc2ncc(C(=O)Nc3c(C)cccc3Cl)s2)cc(N2CCN(CCO)CC2)n1 [dasatinib] — what was its half-life?
55.2
